# reported melting point; entries follow

These recorded examples may help you get a feel for the data.
According to the records, this molecule COc1cc(I)c(C(=O)N(c2ccnc3cc4c(cc23)OCO4)C(C)CN(C)C)cc1OC (stereo not drawn) displays melting point of 82 to 84 °C

According to the records, this molecule `COc1ccc(S(=O)(=O)N2CCN(C(=O)c3ccc(Nc4ccnc5cc(C(F)(F)F)ccc45)cc3)CC2)cc1` displays melting point of 221 to 223 °C

# next molecule below
According to the records, this molecule `O=c1n(CCCF)nnn1-c1ccc(OCc2ccc(F)cc2)cc1F` displays melting point of 86 to 88 °C

* * *

Observation Type: melting point

These recorded examples may help you get a feel for the data.
According to the records, this compound `COc1cc2nc(SCc3nccc(N(C)C)c3Cl)[nH]c2cc1OC` displays melting point of 121 to 122 °C

According to the records, this compound `COC1(c2cc(F)cc(OCc3ccc4ccccc4c3)c2)CCOCC1` displays melting point of 109 to 111 °C

According to the records, this compound `Cn1cccc1C(=O)NCCN1CCC(Nc2nc3ccccc3n2Cc2ccc(CO)o2)CC1` displays melting point of 182 °C

According to the records, this compound `COc1ccc(C(=CC#N)c2cccc([N+](=O)[O-])c2)cc1OC` displays melting point of 118 to 120 °C

According to the records, this compound `Cc1c(F)cc(C(C)(C)C)c(O)c1-c1nc2ccc(S(=O)(=O)C(F)(F)F)cc2c(=O)[nH]1` displays melting point of 257 to 258 °C

According to the records, this compound `OCCCCOc1cnc(-c2ccccc2)c(-c2ccccc2)n1` displays melting point of 93 to 95 °C

According to the records, this compound `COc1cc(C=O)cc(OC)c1OCCO` displays melting point of 69 to 70 °C

According to the records, this compound `COc1ccc2cc(CC(N)=O)ccc2c1` displays melting point of 234 to 236 °C

According to the records, this compound `CCOC(=O)C(=O)c1ccc(C)[nH]1` displays melting point of 72 to 74 °C

According to the records, this compound `N#Cc1cc(-c2nc3cncnc3s2)ccc1Oc1ccc(Cl)cc1` displays melting point of 179 to 180 °C

***
According to the records, this compound `COC(=O)c1cn(-c2ccc(F)cc2)c(-c2ccc(N(C)C)c(C)c2)cc1=O` displays melting point of 217 to 220 °C

According to the records, this compound NS(=O)c1ncnc2c1ncn2C1OC(CO)C(O)C1O (stereo not drawn) displays melting point of > 120 °C

According to the records, this compound `COc1ccc(C2CCCCC2)cc1-c1csc(N)n1` displays melting point of 67 °C

According to the records, this compound `Cc1nnc(-c2ccc3occ(-c4ccc(SCF)cc4)c3c2)o1` displays melting point of 143 to 144 °C

According to the records, this compound `Cc1noc(NS(=O)(=O)c2ccccc2-c2ccc(-c3ncco3)cc2/C=C/c2ccccc2)c1C` displays melting point of 102 to 109 °C

According to the records, this compound `COc1ccc(-c2c(NCCc3ccc(C(C)(C)C)cc3)c(=O)c2=O)cc1` displays melting point of 258 to 260 °C
